pEC50 for assorted compounds
# Tested on: Human alphaherpesvirus 1
# Method Summary: Antiviral activity against HSV1
# Type: functional, organism-based
pEC50: −log10 of the molar value.

Reference set (3 entries):
In [3]: df
Out[3]:
                                   compound            assayed_system  result
0      COc1ccc(Cn2nc3ccc(C(F)(F)F)cc3n2)cc1  Human alphaherpesvirus 1  < 4.00
1  Cc1ccc2nn(-c3ccc(OCCCC(C)(C)C(=O)O)cc3)nc2c1  Human alphaherpesvirus 1  < 4.00
2              Clc1cc2nn(Cc3ccccc3)nc2cc1Cl  Human alphaherpesvirus 1  < 4.00

# input # get_value(readout='pEC50', item= COc1ccc(Cn2nnc3cc(Cl)c(Cl)cc32)cc1 )
# output < 4.00

# input Moving on to O=c1cnn([C@@H]2O[C@H](CO)[C@@H](O)[C@H]2O)c(=O)[nH]1 [6-AZAURIDINE]
# output < 4.00

# input Moving on to Cc1cc2nn(C3CCCO3)nc2cc1C (configuration not stated)
# output < 4.00

# input Moving on to Clc1ccc(Cn2nc3cc(Cl)c(Cl)cc3n2)cc1
# output < 4.00

# input Moving on to C#C[C@@]1(O)[C@H](O)[C@@H](CO)O[C@H]1n1ccc(N)nc1=O [2'-ETHYNYL-D-CYTIDINE]
# output < 4.00

# input Moving on to Nc1nc2c(ncn2COCCO)c(=O)[nH]1 [ACYCLOVIR]
# output 5.92

# input Moving on to Clc1cc2nnn(C3CCCCO3)c2cc1Cl (configuration not stated)
# output < 4.00

# input Moving on to Clc1cc2nn(C3CCCCO3)nc2cc1Cl (configuration not stated)
# output < 4.00

# input Moving on to FC(F)(F)c1ccc2nn(Cc3ccc(Cl)cc3)nc2c1
# output < 4.00
